# subject.of.test: Short transient receptor potential channel 4 (Mus musculus) (UniProt Q9QUQ5)
# Sequence (Q9QUQ5 whole entry, looked up): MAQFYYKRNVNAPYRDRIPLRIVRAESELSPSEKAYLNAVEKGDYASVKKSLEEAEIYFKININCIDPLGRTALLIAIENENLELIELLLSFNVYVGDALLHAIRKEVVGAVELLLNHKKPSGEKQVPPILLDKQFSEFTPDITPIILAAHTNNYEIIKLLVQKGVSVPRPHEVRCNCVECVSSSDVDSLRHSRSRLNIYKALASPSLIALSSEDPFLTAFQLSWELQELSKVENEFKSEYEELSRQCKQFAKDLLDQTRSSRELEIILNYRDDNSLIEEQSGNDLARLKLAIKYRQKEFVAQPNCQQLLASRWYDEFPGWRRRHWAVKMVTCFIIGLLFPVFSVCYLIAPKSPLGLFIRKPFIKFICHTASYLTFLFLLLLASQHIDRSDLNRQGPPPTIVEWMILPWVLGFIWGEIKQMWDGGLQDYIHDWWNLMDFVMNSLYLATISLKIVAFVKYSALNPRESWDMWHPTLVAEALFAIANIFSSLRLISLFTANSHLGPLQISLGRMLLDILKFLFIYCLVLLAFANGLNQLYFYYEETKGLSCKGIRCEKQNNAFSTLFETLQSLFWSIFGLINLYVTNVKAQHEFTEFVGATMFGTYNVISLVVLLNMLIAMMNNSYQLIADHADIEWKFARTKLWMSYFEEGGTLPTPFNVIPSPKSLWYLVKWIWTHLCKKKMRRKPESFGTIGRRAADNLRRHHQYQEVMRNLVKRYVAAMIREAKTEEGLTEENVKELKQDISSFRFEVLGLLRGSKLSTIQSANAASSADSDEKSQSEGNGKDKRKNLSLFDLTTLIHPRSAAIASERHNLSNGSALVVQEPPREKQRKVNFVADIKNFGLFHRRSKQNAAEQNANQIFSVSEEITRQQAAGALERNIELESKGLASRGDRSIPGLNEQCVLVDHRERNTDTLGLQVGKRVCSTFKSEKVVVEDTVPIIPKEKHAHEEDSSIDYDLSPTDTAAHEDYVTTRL
# protocol.summary: positive allosteric modulators of TRPC4, primary screen, cell-based, mouse TRPC4beta, HEK293 mu-opioid, Fluo-4 calcium (AID 2227);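 for B-score: B-score of integrated fluorescence ratio over time as area under calcium response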
# measurement.conditions: DAMGO EC20, Fluo-4 Ca2+ flux, at 10 µM; active compounds read high
The whole screen tested about 310,000 compounds, of which about 1,300 (0.42%) were called active. The full list was thinned out, with actives kept by preference.
attribute.measured: B-score

[[record]]
compound = "O=c1c2ccccc2oc2nc3n(c(=O)c12)CCCS3"
result = "inactive"

[[record]]
compound = "CCc1nc2oc3ccccc3c(=O)c2c(=O)n1Cc1ccc(OC)cc1"
result = "inactive"

[[record]]
compound = "CC(=C1C(=O)c2ccccc2C1=O)N1CCN(c2ccccn2)CC1"
result = "inactive"

[[record]]
compound = "Cc1sc2nc(SCCO)n(-c3ccccc3)c(=O)c2c1C"
result = "inactive"

[[record]]
compound = "O=C1c2cccc3cccc(c23)N1CN1CCN(c2ccccn2)CC1"
result = "10 (active)"

[[record]]
compound = "CC(C)c1nc(CNC(=O)CC2C(=O)NCCN2Cc2cccc(F)c2F)cs1 (stereo unspecified)"
result = "inactive"

[[record]]
compound = "Cc1sc2nc(SCC(N)=O)n(C)c(=O)c2c1C"
result = "29 (active)"

[[record]]
compound = "COC(=O)Cc1csc(/N=C/c2c(O)n(-c3cccc(C(F)(F)F)c3)c(=O)c3ccccc23)n1"
result = "inactive"

[[record]]
compound = "O=c1c2ccccc2oc2nc(C3CCCCC3)n(Cc3ccco3)c(=O)c12"
result = "29 (active)"

[[record]]
compound = "Clc1c(OCCCn2ccnc2)ccc2ccccc12"
result = "15 (active)"

[[record]]
compound = "C=CCc1cc(C)ccc1OCCCn1ccnc1"
result = "inactive"


---

# subject.of.test: Short transient receptor potential channel 4 (Mus musculus) (UniProt Q9QUQ5)
# protocol.summary: positive allosteric modulators of TRPC4, primary screen, cell-based, mouse TRPC4beta, HEK293 mu-opioid, Fluo-4 calcium (AID 2227)
# measurement.conditions: DAMGO EC20, Fluo-4 Ca2+ flux, at 10 µM
Hit rate of the full screen: of about 310,000 compounds, about 1,300 (0.42%) were called active.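 The calls were made as follows: active = B-score of calcium response area above 5 SD of library B-scores, with initial fluorescence ratio within 5 SD of library; inactive = the rest.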 What follows is part of a selection rich in actives, with near analogues and random picks from the rest.
Possible outcomes: active, inactive

[[record]]
compound = "C=CCC1(C(=O)N(C)Cc2ccccc2)CCN(C(=O)OC(C)(C)C)CC1"
subject_of_test = "Short transient receptor potential channel 4 (Mus musculus) (UniProt Q9QUQ5)"
answer_label = "inactive"

[[record]]
compound = "Cc1cc(Nc2cccc(F)c2)n2ncnc2n1"
subject_of_test = "Short transient receptor potential channel 4 (Mus musculus) (UniProt Q9QUQ5)"
answer_label = "inactive"

[[record]]
compound = "COc1ccc(N2CCN(S(=O)(=O)CCNC(=O)C34CC5CC(CC(C5)C3)C4)CC2)cc1"
subject_of_test = "Short transient receptor potential channel 4 (Mus musculus) (UniProt Q9QUQ5)"
answer_label = "inactive"

[[record]]
compound = "Cc1cc2cc3c(N)[nH]nc3nc2cc1C"
subject_of_test = "Short transient receptor potential channel 4 (Mus musculus) (UniProt Q9QUQ5)"
answer_label = "active"

[[record]]
compound = "ONC(=Nc1ccccc1)c1ccccc1Cl"
subject_of_test = "Short transient receptor potential channel 4 (Mus musculus) (UniProt Q9QUQ5)"
answer_label = "inactive"

[[record]]
compound = "COc1ccc(CSc2nnnn2-c2ccc(C(=O)O)cc2)cc1"
subject_of_test = "Short transient receptor potential channel 4 (Mus musculus) (UniProt Q9QUQ5)"
answer_label = "inactive"

[[record]]
compound = "COCCCNC(=O)/C=C/c1ccc(OCc2c(F)cccc2Cl)cc1"
subject_of_test = "Short transient receptor potential channel 4 (Mus musculus) (UniProt Q9QUQ5)"
answer_label = "inactive"

[[record]]
compound = "O=C(/C=C/c1ccc(Cl)c([N+](=O)[O-])c1)c1cccnc1"
subject_of_test = "Short transient receptor potential channel 4 (Mus musculus) (UniProt Q9QUQ5)"
answer_label = "inactive"

[[record]]
compound = "CCn1cc(CN2CCN(CC(C)(C)C)C(CCO)C2)c2ccccc21 (stereo not drawn)"
subject_of_test = "Short transient receptor potential channel 4 (Mus musculus) (UniProt Q9QUQ5)"
answer_label = "inactive"

[[record]]
compound = "COc1ccccc1NC(=O)c1cc(Cl)nc2ccccc12"
subject_of_test = "Short transient receptor potential channel 4 (Mus musculus) (UniProt Q9QUQ5)"
answer_label = "inactive"

[[record]]
compound = "Cc1ccc(Cl)cc1NC(=O)CN1CCN(S(=O)(=O)N2CCOCC2)CC1"
subject_of_test = "Short transient receptor potential channel 4 (Mus musculus) (UniProt Q9QUQ5)"
answer_label = "inactive"

[[record]]
compound = "CC(=O)OCCOCn1cnn2c(=O)c(Br)c(C)nc12"
subject_of_test = "Short transient receptor potential channel 4 (Mus musculus) (UniProt Q9QUQ5)"
answer_label = "inactive"

[[record]]
compound = "Cc1ccc(-c2nnn(CC(=O)N(CCO)C(C(=O)NC(C)(C)C)c3ccncc3)n2)cc1 (stereo not drawn)"
subject_of_test = "Short transient receptor potential channel 4 (Mus musculus) (UniProt Q9QUQ5)"
answer_label = "active"

[[record]]
compound = "COc1ccccc1C1C2=C(COC2=O)Nc2cc3c(cc21)OCO3 (stereo not drawn)"
subject_of_test = "Short transient receptor potential channel 4 (Mus musculus) (UniProt Q9QUQ5)"
answer_label = "inactive"

[[record]]
compound = "COc1ccccc1CNC(=O)C1CCN(S(=O)(=O)c2ccc3c(c2)CC(C)N3C(=O)C2CC2)CC1 (stereo not drawn)"
subject_of_test = "Short transient receptor potential channel 4 (Mus musculus) (UniProt Q9QUQ5)"
answer_label = "inactive"

[[record]]
compound = "O=C(NCC(=O)N1CCN(c2ncc(C(F)(F)F)cc2Cl)CC1)c1ccc(Br)o1"
subject_of_test = "Short transient receptor potential channel 4 (Mus musculus) (UniProt Q9QUQ5)"
answer_label = "inactive"

[[record]]
compound = "CCOC12CC(C)(C)CC(C)(CC3=C1C(=O)CC(C)(C)C3)C2 (stereo not drawn)"
subject_of_test = "Short transient receptor potential channel 4 (Mus musculus) (UniProt Q9QUQ5)"
answer_label = "inactive"

[[record]]
compound = "COc1cc(Cl)c(S(=O)(=O)N2CCN(Cc3ccc4c(c3)OCO4)CC2)cc1Cl"
subject_of_test = "Short transient receptor potential channel 4 (Mus musculus) (UniProt Q9QUQ5)"
answer_label = "active"

[[record]]
compound = "C=C(C)COc1ccc(-c2nc(N)ncc2-c2ccccc2OC)c(O)c1"
subject_of_test = "Short transient receptor potential channel 4 (Mus musculus) (UniProt Q9QUQ5)"
answer_label = "active"

[[record]]
compound = "Cc1cc(C(=O)Nc2ccccc2N2CCOCC2)c2ccccc2n1"
subject_of_test = "Short transient receptor potential channel 4 (Mus musculus) (UniProt Q9QUQ5)"
answer_label = "inactive"

[[record]]
compound = "CCn1cc(C(=O)NCCO)c(=O)c2cc(F)c(N3CCN(C)CC3)cc21"
subject_of_test = "Short transient receptor potential channel 4 (Mus musculus) (UniProt Q9QUQ5)"
answer_label = "inactive"

[[record]]
compound = "O=c1c(-c2ccccc2Cl)c[nH]n1-c1ccccc1"
subject_of_test = "Short transient receptor potential channel 4 (Mus musculus) (UniProt Q9QUQ5)"
answer_label = "inactive"

[[record]]
compound = "COc1ccc(-c2cc(C(=O)N3CCN(Cc4ccc5c(c4)OCO5)CC3)on2)cc1OC"
subject_of_test = "Short transient receptor potential channel 4 (Mus musculus) (UniProt Q9QUQ5)"
answer_label = "inactive"

[[record]]
compound = "CC(=O)c1ccc(N2CCN(C(=O)C3CCN(S(=O)(=O)c4ccc5c(c4)CC(C)N5C(=O)C4CC4)CC3)CC2)cc1 (stereo not drawn)"
subject_of_test = "Short transient receptor potential channel 4 (Mus musculus) (UniProt Q9QUQ5)"
answer_label = "active"

[[record]]
compound = "Cc1cccc(CN2CCC(CNC(=O)Nc3ccc(F)c(Cl)c3)CC2)c1"
subject_of_test = "Short transient receptor potential channel 4 (Mus musculus) (UniProt Q9QUQ5)"
answer_label = "inactive"

[[record]]
compound = "CC(C)c1c(C(=O)N/N=C/c2ccc(-c3ccccc3)cc2)nnn1-c1nonc1N"
subject_of_test = "Short transient receptor potential channel 4 (Mus musculus) (UniProt Q9QUQ5)"
answer_label = "inactive"

[[record]]
compound = "COc1ccc(/C=C2/S/C(=N/N=C3\\CC4CCC3(C)C4(C)C)NC2=O)cc1 (stereo not drawn)"
subject_of_test = "Short transient receptor potential channel 4 (Mus musculus) (UniProt Q9QUQ5)"
answer_label = "inactive"

[[record]]
compound = "CC[C@@H](C)[C@H](NC(=O)CCc1c(C)c2cc3c4c(oc3c(C)c2oc1=O)CCCC4)C(=O)O"
subject_of_test = "Short transient receptor potential channel 4 (Mus musculus) (UniProt Q9QUQ5)"
answer_label = "inactive"

[[record]]
compound = "Cc1ccc(-c2nnn(CC(=O)N(Cc3ccco3)C(C(=O)NC(C)(C)C)c3ccncc3)n2)o1 (stereo not drawn)"
subject_of_test = "Short transient receptor potential channel 4 (Mus musculus) (UniProt Q9QUQ5)"
answer_label = "inactive"

[[record]]
compound = "CC(=O)c1ccc(N2CCN(S(=O)(=O)c3ccc4c(c3)CC(=O)N4C)CC2)cc1"
subject_of_test = "Short transient receptor potential channel 4 (Mus musculus) (UniProt Q9QUQ5)"
answer_label = "inactive"

[[record]]
compound = "COC(C[C@H](O)CC(=O)COCc1ccccc1)OC"
subject_of_test = "Short transient receptor potential channel 4 (Mus musculus) (UniProt Q9QUQ5)"
answer_label = "inactive"

[[record]]
compound = "COc1cccc(/C=C/C(=O)OCC(=O)N2CCCc3ccccc32)c1"
subject_of_test = "Short transient receptor potential channel 4 (Mus musculus) (UniProt Q9QUQ5)"
answer_label = "inactive"

[[record]]
compound = "COC(=O)C1=C(C)NC(=O)CC1c1ccccc1OC (stereo not drawn)"
subject_of_test = "Short transient receptor potential channel 4 (Mus musculus) (UniProt Q9QUQ5)"
answer_label = "inactive"

[[record]]
compound = "CCN1/C(=C\\c2ccc3ccccc3[n+]2CC)Sc2cc(C)ccc21"
subject_of_test = "Short transient receptor potential channel 4 (Mus musculus) (UniProt Q9QUQ5)"
answer_label = "active"

[[record]]
compound = "CCOc1ccc(-c2nc(N)ncc2-c2ccccc2OC)c(O)c1"
subject_of_test = "Short transient receptor potential channel 4 (Mus musculus) (UniProt Q9QUQ5)"
answer_label = "inactive"

[[record]]
compound = "CCn1cc(C(=O)N2CCN(Cc3ccc4c(c3)OCO4)CC2)c2cc(OC)c(OC)cc2c1=O"
subject_of_test = "Short transient receptor potential channel 4 (Mus musculus) (UniProt Q9QUQ5)"
answer_label = "inactive"

[[record]]
compound = "CN1CCN(c2cc3c(cc2F)c(=O)c(C(=O)O)cn3CCF)CC1"
subject_of_test = "Short transient receptor potential channel 4 (Mus musculus) (UniProt Q9QUQ5)"
answer_label = "inactive"

[[record]]
compound = "CC(=O)N1c2ccc(S(=O)(=O)N3CCC(C(=O)N4CCN(c5ccccc5)CC4)CC3)cc2CC1C (stereo not drawn)"
subject_of_test = "Short transient receptor potential channel 4 (Mus musculus) (UniProt Q9QUQ5)"
answer_label = "inactive"

